For each entry below, report its IC50 value.
Target chain: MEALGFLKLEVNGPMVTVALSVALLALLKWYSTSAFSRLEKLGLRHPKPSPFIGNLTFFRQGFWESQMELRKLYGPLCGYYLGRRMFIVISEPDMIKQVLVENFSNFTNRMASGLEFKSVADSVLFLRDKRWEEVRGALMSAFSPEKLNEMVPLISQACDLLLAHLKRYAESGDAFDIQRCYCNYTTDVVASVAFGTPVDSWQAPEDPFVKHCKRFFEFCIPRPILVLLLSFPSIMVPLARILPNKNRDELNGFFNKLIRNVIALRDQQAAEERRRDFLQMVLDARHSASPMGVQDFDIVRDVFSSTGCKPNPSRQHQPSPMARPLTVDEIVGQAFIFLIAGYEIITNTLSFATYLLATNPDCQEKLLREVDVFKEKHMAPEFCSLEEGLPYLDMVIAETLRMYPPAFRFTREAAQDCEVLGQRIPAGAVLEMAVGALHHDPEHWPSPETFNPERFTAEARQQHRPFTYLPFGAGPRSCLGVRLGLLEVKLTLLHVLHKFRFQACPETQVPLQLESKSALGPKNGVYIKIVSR

Any idea what its IC50 is? The compound is CC(C)c1ccc2nc3ccc(C(=O)NCCCCc4cccnc4)cn3c(=O)c2c1
100 to 1000 nM

Sample CC(C)c1ccc2nc3ccc(C(=O)NCCCCn4ccnc4)cn3c(=O)c2c1 — what was its IC50?
100 to 1000 nM

Which IC50 is listed for CC(C)c1ccc2nc3ccc(C(=O)NCCCCCCc4cccnc4)cn3c(=O)c2c1 ?
100 nM
